Protocol Summary: Solubility in aqueous buffer
Assay type: physicochemical
Condition Details: aqueous buffer
Reported Property: solubility

[ask] Consider the compound CC[C@H](C)[C@@H]1NC(=O)[C@H](Cc2ccccc2)NC(=O)[C@H](CCCCN)NC(=O)[C@H](CCC(=O)O)NC(=O)[C@H]([C@@H](C)O)NC(=O)[C@H](C(C)C)NC(=O)[C@H]([C@@H](C)CC)NC(=O)[C@H]([C@@H](C)CC)NC(=O)[C@@H](Cc2ccc(O)cc2)NC(=O)CSC[C@@H](C(=O)NCC(N)=O)NC(=O)[C@H](Cc2c[nH]cn2)NC(=O)[C@H](Cc2c[nH]cn2)NC(=O)[C@H](C(C)C)NC(=O)[C@H](Cc2c[nH]c3ccccc23)NC1=O [KD1] . State its measured solubility.
[reply] ~50 µM
